# protocol-details: folding stability dG unfold from chymotrypsin proteolysis; higher = more stable
Note to self: values exactly at 0.9 kcal/mol are yes (1). So folding stability dG unfold at or above 0.9 kcal/mol is yes (1), below is no (0).

# bool: folding stability dG unfold of SAGGSAGGSAGGSMVVEYDPETGVRTTTVALPSDSVEVTTEKIDPATGEVVETVTELAASAGGSAGGSAGGS [r4_415_JUSTAS] >= 0.9 kcal/mol no (0)

# bool: folding stability dG unfold of SAGGMETIELEIEITDEDGNTYRIRVTIERKDGKLVIKIEVEAETPEERERARELAEELARRLEEELSAGGS [r8_416_TrROS_Hall] >= 0.9 kcal/mol yes (1)

# bool: folding stability dG unfold of SAGGSAGGSAGGTPIAETEVSEDPATGKLITTSKSPTDPKVYVTTTDLATGVPTTTPLLSAGGSAGGSAGGS [r10_1034_JUSTAS] >= 0.9 kcal/mol no (0)

# bool: folding stability dG unfold of SAMLRIRVEYEDGRVEDIVIPLAGEDPPFGKEAVEEAAERIAKEVEEKYGLKNVKTEVEAFPVSPEELLSAG [r14_378_TrMRF] >= 0.9 kcal/mol yes (1)

# bool: folding stability dG unfold of SAGGKKEYKILITGKSIPSDGIVYLPNPNKVNIKSNNNYTYKTIPITIIADNNPEKAKKIAKELGLGSAGGS [r16_467_TrMRF] >= 0.9 kcal/mol no (0)

# bool: folding stability dG unfold of SAGGSAGGSTLKLEIVNEDGYKVEIEAELELVEKDGKLVLKLKVKIKVEPAKEVKEVKVELPESAGGSAGGS [r12_581_TrROS_Hall] >= 0.9 kcal/mol yes (1)

# bool: folding stability dG unfold of SAGGKVKVVEIRYFPGTNTVEILVEDPGPYLATIRIPAAPDAPIEIDEDANFRVPDAPVVLGEVRPPSAGGS [r16_515_TrMRF] >= 0.9 kcal/mol no (0)

# bool: folding stability dG unfold of SGVLVVTHPDGSVSTVPFTHPDGLVVDISAGVDAPLYATVVRLLPDGTPEPLPVFEFDSIEDVLEALAEASA [r9_942_TrMRF] >= 0.9 kcal/mol yes (1)

# bool: folding stability dG unfold of SAGGSAMLENLPELDIKIKVEYKAEILPDGSLLIPAKIELEIGDKKFEFEAKILINPNGEITIEIGSAGGSA [r15_891_TrMRF] >= 0.9 kcal/mol yes (1)

# bool: folding stability dG unfold of SAGGMEPPPMLLLVIEIENEDGEKLRIVVPLEDLEEVLKALGLSKEEVRIKKIEVVPLTDEQLKELLESAGG [r13_850_TrROS_Hall] >= 0.9 kcal/mol yes (1)

# bool: folding stability dG unfold of SAGGSAGGSAGGMLLSPEEAEKLAAELKAKENVTIKVTPEPSPGKVKVEIIKTKGPKLVSAGGSAGGSAGGS [r10_402_JUSTAS] >= 0.9 kcal/mol no (0)

# bool: folding stability dG unfold of SAGGSAGGSALPTSPTYAVVKVPDKYYIVKTKVGDIIFIPDENGIPVPVKVEPFYPIAPEALSAGGSAGGSA [r18_244_TrMRF] >= 0.9 kcal/mol no (0)

---

# protocol-details: folding stability dG unfold (combined trypsin and chymotrypsin); higher = more stable
Note to self: values exactly at 2 kcal/mol are criterion met. So folding stability dG unfold at or above 2 kcal/mol is criterion met, below is criterion not met.

# bool: folding stability dG unfold of SMKIKIKVETNPNGEKKIEIEIELKEEDIEFDEGMTLEERKEKLRELAEELAKKLKEEGKEVKIVEIEVESA [r9_751_TrROS_Hall] >= 2 kcal/mol criterion met

# bool: folding stability dG unfold of SAGGFKIKNIDVERNPDNGWRTITVEFPGNGWKFQIQVPPDGGVKYEWYNNGEPQTYTIPADDLKDLSAGGS [r8_238_TrROS] >= 2 kcal/mol criterion not met

# bool: folding stability dG unfold of SAGGMVFTITVRNPDGTVVELPFDVSDVTITPKNGDLYITVAGGKVLTLKTDEVLDIDPAAIAAANAASAGG [r13_925_JUSTAS] >= 2 kcal/mol criterion not met

# bool: folding stability dG unfold of SAGGSAMRPLELENPNGREITIWYNPGEGHFQVEIERYEPPPNGKKKPQRHTFMVNSPEDLLDFIKSAGGSA [r15_31_TrROS] >= 2 kcal/mol criterion not met

# bool: folding stability dG unfold of SAGMIDVVVRVRLDVRPETVAEELRRRFPAIRRIEPVRVERRVEREPGRRYLLVHLRIELGDVPPELLRSAG [r5_326_TrMRF] >= 2 kcal/mol criterion met

# bool: folding stability dG unfold of SAGGSASTYEPEVYTFTGKNKKIKVIVVKPKDNPTAKIIVYDENGNVLATIEFPAENVEKALKELASAGGSA [r15_940_TrMRF] >= 2 kcal/mol criterion met

# bool: folding stability dG unfold of SAGGSAKIVIPGMSPSMIRHAIKEGVKKIHIVWPNPEQAKGFKKELEKEDGIPIKVVPAEEAKKLESAGGSA [r15_243_TrROS] >= 2 kcal/mol criterion not met

Recorded values, source the supplement of paper PMC12764529.
